The compounds listed here are annotated with their pIC50.
testSystem: TBK1 (Homo sapiens (Human), UniProt Q9UHD2)
Sequence (Q9UHD2 whole entry): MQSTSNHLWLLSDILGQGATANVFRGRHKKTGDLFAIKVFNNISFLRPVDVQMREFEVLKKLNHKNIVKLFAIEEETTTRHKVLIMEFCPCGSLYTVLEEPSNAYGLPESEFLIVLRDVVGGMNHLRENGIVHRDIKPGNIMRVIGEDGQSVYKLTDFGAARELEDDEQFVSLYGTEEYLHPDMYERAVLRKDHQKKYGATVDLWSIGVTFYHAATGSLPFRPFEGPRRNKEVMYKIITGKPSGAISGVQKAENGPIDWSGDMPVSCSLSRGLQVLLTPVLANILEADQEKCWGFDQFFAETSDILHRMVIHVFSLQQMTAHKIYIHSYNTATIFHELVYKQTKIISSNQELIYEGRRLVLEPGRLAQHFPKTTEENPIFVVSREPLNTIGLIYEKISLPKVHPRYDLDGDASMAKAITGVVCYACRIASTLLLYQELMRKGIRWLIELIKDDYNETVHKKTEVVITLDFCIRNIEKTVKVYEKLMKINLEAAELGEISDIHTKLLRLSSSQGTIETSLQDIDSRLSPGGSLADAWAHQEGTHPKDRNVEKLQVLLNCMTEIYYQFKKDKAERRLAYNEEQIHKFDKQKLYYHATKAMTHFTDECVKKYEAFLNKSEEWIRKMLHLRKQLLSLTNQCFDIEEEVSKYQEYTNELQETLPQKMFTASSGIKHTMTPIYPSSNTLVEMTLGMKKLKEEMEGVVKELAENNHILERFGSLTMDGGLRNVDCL
testName: Lanthascreen TR-FRET kinase inhibition assay, TBK1
Assay type: biochemical
conditionLabel: 20 μM ATP (apparent Km), 8 nM kinase, 2.5 h
pIC50: −log10 of the molar value.

Solved cases (6 shown):
{"smilesNotation": "CC1(O)CN(Cc2ccc(Nc3nccc(-c4cnc(N5CC[C@H](F)C5)c(C#N)c4)n3)cn2)C1", "pIC50": "> 7.00"}
{"smilesNotation": "N#Cc1nc(-c2ccnc(Nc3ccc(OCCN4CC[C@H](F)C4)nc3)n2)ccc1N1CC[C@H](O)C1", "pIC50": "> 7.00"}
{"smilesNotation": "N#Cc1cc(-c2ccnc(Nc3cnn(CCO)c3)n2)cnc1N1CCCC1", "pIC50": "> 7.52"}
{"smilesNotation": "CN1CCC(NC(=O)c2cccc(Nc3nccc(-c4cnc(N5CC[C@H](O)C5)c(C#N)c4)n3)c2)CC1", "pIC50": "> 7.00"}
{"smilesNotation": "N#Cc1cc(-c2ccnc(Nc3cncc(CN4CCOCC4)c3)n2)cnc1N1CC[C@H](F)C1", "pIC50": "> 7.52"}
{"smilesNotation": "CC(=O)Nc1ccc(Nc2nccc(-c3cnc(N4CC[C@H](F)C4)c(C#N)c3)n2)cn1", "pIC50": "> 7.52"}

Give the measured pIC50 of N#Cc1cc(-c2nc(Nc3ccnc(NC(=O)CN4CCOCC4)c3)ncc2F)cnc1NC1CC1 .
> 7.00

Give the measured pIC50 of N#Cc1cc(-c2ccnc(Nc3ccc(NCCO)nc3)n2)cnc1N1CC[C@H](F)C1 .
> 7.52
